Biological target: T1, Human Id2: Histidine (human, UniProt Q02363 1-134, limits assumed)
T1 construct: Fusion protein made in E. coli from vector pGW07; also called h-Id2: His; not shown: His tag
T1 sequence (looked up): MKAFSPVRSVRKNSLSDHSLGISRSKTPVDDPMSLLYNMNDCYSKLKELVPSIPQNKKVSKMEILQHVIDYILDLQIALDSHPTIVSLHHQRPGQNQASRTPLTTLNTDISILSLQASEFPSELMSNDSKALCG
Assay: ELISA, Ab 0.025 µg/ml
parameter: A450 (A450)
Please give a number only; it is taken to be in A450.

Noted for rabbit monoclonal anti-human Id3, clone #BCH-4/#3-3 (antibody, V domains shown, Rabbit IgG from a rabbit hybridoma; also called h Id3 MoAb 3-3) VH: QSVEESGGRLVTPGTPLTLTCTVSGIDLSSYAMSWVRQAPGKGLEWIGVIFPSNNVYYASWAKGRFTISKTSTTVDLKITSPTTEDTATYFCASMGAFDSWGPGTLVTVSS VL: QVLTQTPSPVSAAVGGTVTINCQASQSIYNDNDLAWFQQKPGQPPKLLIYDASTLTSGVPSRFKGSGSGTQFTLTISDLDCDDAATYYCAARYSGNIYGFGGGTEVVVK : its A450 reads 0.044
